// data source = patent US5117037A

- System: platelet aggregation (ADP-induced)
- testMethodNotes: Platelet anti-aggregatory activities, ADP-induced aggregation of washed platelet suspension
- Assay type: cell-based, Japanese white male rabbits
- conditionContext: Oryctolagus cuniculus, 0.05 h, rabbit platelet suspension, 3 min preincubation, read-out: Platelet anti-aggregatory activities ED50, ADP (concentration inhibiting 50% of the platelet aggregation)
Parameter: IC50. Scope: all listed entries.
testReadout: IC50 (nM)

>>> testvalue("CCC#CCC(C)(C)[C@H](O)C#C[C@@H]1[C@H]2CCC(/C=C\\CCC(=O)O)=C[C@H]2C[C@H]1O")
1.3
>>> testvalue("CCCCC[C@H](O)/C=C/[C@@H]1[C@H]2C/C(=C/CCCC(=O)O)O[C@H]2C[C@H]1O [PGI2, reference compound]")
2.9
>>> testvalue("CCC#CCC(C)(C)[C@H](O)C#C[C@@H]1[C@H]2CCC(CCOCC(=O)O)=C[C@H]2C[C@H]1O")
2.7

---

- Tested on: platelet aggregation (collagen-induced)
- testMethodNotes: Platelet anti-aggregatory activities, collagen-induced aggregation of washed platelet suspension
- Type: cell-based, Japanese white male rabbits
- conditionContext: Oryctolagus cuniculus, 0.05 h, rabbit platelet suspension, 3 min preincubation, read-out: Platelet anti-aggregatory activities ED50, collagen (concentration inhibiting 50% of the platelet aggregation)
A collection of compounds and their measured IC50
testReadout: IC50 (nM)

>>> testvalue("CCC#CCC(C)(C)[C@H](O)C#C[C@@H]1[C@H]2CCC(CCOCC(=O)O)=C[C@H]2C[C@H]1O")
8.6
>>> testvalue("CCCCC[C@H](O)/C=C/[C@@H]1[C@H]2C/C(=C/CCCC(=O)O)O[C@H]2C[C@H]1O [PGI2, reference compound]")
3.4
>>> testvalue("CCC#CCC(C)(C)[C@H](O)C#C[C@@H]1[C@H]2CCC(/C=C\\CCC(=O)O)=C[C@H]2C[C@H]1O")
0.58
